test: yeast display, Sf9 membrane polyspecificity reagent, FACS + sequencing; frameworks hold sequencing errors
readout_kind: polyreactivity (PSR sort gate)

Note polyreactivity (PSR sort gate) for the sequence shown: `QVQLVESGGGLVQAGGSLRLSCAASGTTYYNAMGWYRQAPGKERELVAAIRFRSGSTYYADSVKGRFTISRDNAKNTVFLQMNSLKPEDTAVYYCNIVPYRGYRRYGYWGQGTHVTVSS`
high polyreactivity

Note polyreactivity (PSR sort gate) for the sequence shown: `QVQLVESGGVLVQAGGSLRLSCAASEIIFTFYAMAWYRQAPGKEMELVAAITSSGGRTYYADSVKGRFTISRDNAKNTVYLQMNSLKPEDTAVYYCAARLPGYVRKYDYWGQGTQVTVSW`
high polyreactivity

---

test: yeast display, Sf9 membrane polyspecificity reagent, FACS + sequencing; frameworks hold sequencing errors
readout_kind: polyreactivity (PSR sort gate)

Take a look at these entries with their results.
Note polyreactivity (PSR sort gate) for the sequence shown: `QVQLVESGGGLVQAGGSLRLSCAASGFIFYDYVMGWYRQAPGKERELVAAISASGGSTYYADSVKGRFTISRDNAKNTVYLQMNCLKPEDTAVYYCNARPKYDSGHYYWGQGTQVTVSS`
high polyreactivity

Note polyreactivity (PSR sort gate) for the sequence shown: `QVQLVESAGGLVQAGGSLRLSSAASGRTFIVYAMGWYRQARGKERELVAGITRGSTNYADSVKGRFTISRDNAKNTVYVQMNCLKPEDTAVYYCAARWQWLNGYYYWGQGTQVTVSS`
high polyreactivity

Note polyreactivity (PSR sort gate) for the sequence shown: `QVQLVESGGGLVQAGGSLRLSCAASGFIFAPNAMGWYRQAPGKERELVAAISQSGASTFYADSVKGRFTISRDNAKNTVYFQMNSLKPEDTAVYYCAAPPYYSYDYWGQGTQVTVSS`
low polyreactivity

Note polyreactivity (PSR sort gate) for the sequence shown: `QVQLVESWGGLGQAVGSLRLSCAASGRTFLIYAMGWYIQAPGTERELVASITGRGGRTSYADSVKGRFTISRDNAQNTVYLQMNSLKPEDTAVYYCAARNPYTSTYYYWGQGTQVTVSS`
high polyreactivity

Note polyreactivity (PSR sort gate) for the sequence shown: `QVQLVESGGGLVQAGGSLRLSCAASGSIFGGYAMGWYRQAPGKERELVAAISGSGGSTYYADSVKGRFTISRDNAKNTVYLQMNSLKPEDTAVYYCAADSNKYGYEYDYWGQGTQVTVSS`
low polyreactivity

---
Note polyreactivity (PSR sort gate) for the sequence shown: `QFQLVESGGGLVQSGGSLRLSCAPTGLIFRPYAMGCYRQAPGKERELVAGINSGGNTDYADSVKGRFTISRDNAKNTVYLQMNSLKPEDTAVYYCNREYQVTIYDYCGQGTQVTVSS`
low polyreactivity

Note polyreactivity (PSR sort gate) for the sequence shown: `QVQLQESGRRPGAAGGSPRMSCAASGNIFWVAVMGRYRQAPGKERELVASIGFGCTTYYADSVKCRFTISRDNAKNTVYLQMISLKPEDTAVYYCAAPHYDWGELDYWGQGTQVPVSS`
low polyreactivity

---

test: yeast display, Sf9 membrane polyspecificity reagent, FACS + sequencing; frameworks hold sequencing errors
readout_kind: polyreactivity (PSR sort gate)

Note polyreactivity (PSR sort gate) for the sequence shown: `QVQLVESGGGLVQAGGSLRLSCAASGFISKYYAMVWYRQAPGKERELVAAITRSGTSTYYADSVKGRFTISRDNAKNTVYLQMNSLTPEDTAVYYCAAVSGGRTPRYYYWGQGTQVTVSS`
high polyreactivity

Note polyreactivity (PSR sort gate) for the sequence shown: `QVQLVESGGGLVQAGGSLRLSCAASGFTYRSYTMGWYRQAPGKERELVAAITSRGTSTYYADSVKGRFTISRDNAKNTVYLQMNSLKPEDTALYYCNAARPGKNYDSWGQGTQVTVSS`
high polyreactivity

---

test: yeast display, Sf9 membrane polyspecificity reagent, FACS + sequencing; frameworks hold sequencing errors
readout_kind: polyreactivity (PSR sort gate)

Note polyreactivity (PSR sort gate) for the sequence shown: `QVQLVESGGGLVQAGGSLRLSCAASGSIFLSNARGWYIQAPGKERELVADIDWTRGDTYYADSVKGRFTISRDNAKNTVYLQMNSLKPEDTAVYDCAADYGYRNLLTEYGYWGQGTEVTVSS`
low polyreactivity

Note polyreactivity (PSR sort gate) for the sequence shown: `QVQLVESGGGLVQAGGSLRLSCGASGRIFYSNAMGWYRQAPGTERELVAAITGSGGRTHYADSVKGRFTISRDNAKNTVYLQMNSLKPEDTAVYYCAKDGYFPEFDYWGQGTQVTVSS`
high polyreactivity

Note polyreactivity (PSR sort gate) for the sequence shown: `QVQLVESGGGLVQAGGSLRLICAASGRIFYYNAMGWYRQAPGKERELVAVITRSGGRTFYADSVKGRFTISRDNAKNTGYLQMNSLKPEDTAVYYCAARYRYYPVTTRGYYWGQGTQVTVSS`
high polyreactivity

Note polyreactivity (PSR sort gate) for the sequence shown: `QVHLVESGGGLVQAGRTLRLICAASGFIFWRNTMGWYRQAPGKERELVAVITRGGSTYYADSVKGRFTLSRDNAKNTGYLQMNSLKPEDTAVYYCAARNDYYKTFSGYDYWGQGTQVTVSS`
low polyreactivity

Note polyreactivity (PSR sort gate) for the sequence shown: `QVQLVESGGGLVQAGGSLRLSCAASGRICVTYAIGRYRQAPGKERELVAASTYSGGSTYYADSVKGRFTISRDNAKNTVYLQMNSLKPEDTAVYYCGWTYHYHRESWGQGTQVTVSS`
low polyreactivity

---
Note polyreactivity (PSR sort gate) for the sequence shown: `QVQLEESGGRLVQAGGSLRLSCAASGRTFYVYALGWYRQAPGKEREFVAAISGSGGSTFYADSVKGRFTISRDNPKNTVYLQMNSLKPEDTAVYYCATGGSYLYYLKFGHLSAFDYWGQGTQVTVSS`
low polyreactivity

Note polyreactivity (PSR sort gate) for the sequence shown: `QVQLVESGGGLVQAGGSLRLSCAASGSIFSLNAMGWYRQAPGKERELVAAISGRGGSTYYADSVKGRFTISRDNAKNTVYLQMNSLKPEDTAVYYCAARFSRTFLGYYYWGQGTQVTVSS`
high polyreactivity

Note polyreactivity (PSR sort gate) for the sequence shown: `QVHLVESGGGLVQAGGSLRLSCAASGSIFFGNAMGWYRQAPGKERQLVAAISTTGGSTYYADSVKGRFTISRDNAKNTVYLQMNSLKPEDTAVFFCNSDRATWWEQWWYDYWGQGTQVTVSS`
low polyreactivity

Note polyreactivity (PSR sort gate) for the sequence shown: `QVQLVESGGGLVQAGGSLRLSCAASGRTFRAYAMGWYRQAPGKERELVAAISSRGGSTYYADSVKGRFTISRDNAKNTVYLQMNSLKPEDTAVYYCNVDRYVRGLITFDYWGQGTQVTVSS`
high polyreactivity

Note polyreactivity (PSR sort gate) for the sequence shown: `QVQLVESGGGLVQAGGSLRLSCAASGYIFKYYAKGWYRQAPGKERELVAAISWDGTDTYYADSVKGRFTISRDNAKNTVYLQMNSLIPEDTAVYYCNADYDVYGWRNYWGQGTHVTVSS`
low polyreactivity

Note polyreactivity (PSR sort gate) for the sequence shown: `LVQLQESRGGLVLAGGGLRLSCPESVNIFTYVIMGWYRQQPGKERELVAAITYGTFTNYADSVKGPFTISRDNAKNTVYLHMNCLKPEDTAVYHCAVQSPLIEPRLYYWGQGTQVTVSS`
high polyreactivity

---

test: yeast display, Sf9 membrane polyspecificity reagent, FACS + sequencing; frameworks hold sequencing errors
readout_kind: polyreactivity (PSR sort gate)

Note polyreactivity (PSR sort gate) for the sequence shown: `QVQLVESGGGLVQAGGSLRLSCAASGSIFYEYAMGWYRKAPGKEREFVAAISSSGGSTYYADSVKGRFTISRDNAKNTVYLQMNSLKPEDTAVYYCATQSSVLSWWYDYWGQGTQVTVSS`
low polyreactivity

Note polyreactivity (PSR sort gate) for the sequence shown: `QVQLVESGGGLVQAGGSLRLSCAASGRTFVWNAIGWYRQAPGKERELVDAITSGGSTNYADSVKGRFTISRDNAKNTVYLQMNSLKPEDTAVYYCAADWHYSPRMDYWGQGTLVTVSS`
low polyreactivity

---

test: yeast display, Sf9 membrane polyspecificity reagent, FACS + sequencing; frameworks hold sequencing errors
readout_kind: polyreactivity (PSR sort gate)

Note polyreactivity (PSR sort gate) for the sequence shown: `QVQLVESGGGLVQAGGSLRLSCAASGFTFAKNAMGWYRQAPGKERELVATISRSGGSTYYADSVKGRFTLSRDNAKNTVYLQMNSLKREVNAVYYCNKKYNYLYDYWGQGTQVTVSS`
high polyreactivity

Note polyreactivity (PSR sort gate) for the sequence shown: `QVQLVESGGGLVQAGGSLRLSCAASGSTFIYYTMGWYRQAPGKERELVAAISWRGGSTYYADSVKGRFTIARDNAKNTVYLQMNSLKPEDTAVYYCATGYLYFTSYRYNYWGQGTQVTVSS`
low polyreactivity

Note polyreactivity (PSR sort gate) for the sequence shown: `QVQLVESGGGLVQAGGSLRLSCAASGSTFDTNAMGWYRQAPGKERELVATITSIGGSTYADSVKGRFTISRDNAKNTVYLQMNSLKPEDTAVYYCATDYVEIDYDYDYWGQGTQVTVSS`
low polyreactivity

Note polyreactivity (PSR sort gate) for the sequence shown: `QVQLVESGGGLVQAGGSLRLSCAASGRIYTWNAMGWYRQAPGKERDLVASISRSGTSTYYADSVKGRNTISRDNALTTVYLQMNSLKPEDTAVYYCAAKTSRGDRTQVEYWGQGTQVTVSS`
high polyreactivity

Note polyreactivity (PSR sort gate) for the sequence shown: `QVQLVESGGGLVQAGGSLRLSCAASGSIFGRNAMAWYRQAPGKERELVADIWNGGSTYYADSVNGRFTNSRDNAKNTVYFLMNSLKPEDTAVSYCNADADDDGRFGGYMKYDYWGQGTQVTVSS`
low polyreactivity

---
Note polyreactivity (PSR sort gate) for the sequence shown: `QVQLVESGGGLVQAGGSLRLTCAPSGSTLLVYAMGWNRQAPGKERELVAAISGSGGRTSYADSVKGRFTISRDNAKNTVYLQMNSLKPEDTAVYYCAARRAGTYDYWGEGTQVTVSS`
high polyreactivity

Note polyreactivity (PSR sort gate) for the sequence shown: `QVQLVESGGGLVQAGGSLRLTCAASGFIFQNYAMGWYIQAPGKERELVSAIDFTDGSKYYADSVKGRYTISRDNAKNSVYLQMNSLKPEDTSVDYCNALDYLYGGIYLEEDYWGQGTQVTVSS`
low polyreactivity

Note polyreactivity (PSR sort gate) for the sequence shown: `QVQLVESWGGLVQAGGSLRLSCAASGRILGDYAMGWYRQAPGKEREFVAAIDYNGGSTNYADSVKGRFTISRDNAKNTVFLQMNSLKPEDTAVYYCAAPGFPSRNGFGYWGQGNQVTVSS`
low polyreactivity

Note polyreactivity (PSR sort gate) for the sequence shown: `QVQLVESGGGLVQAGRSLRLSCAASGSTFSHYAMGWYRQAPGKERELFATITGTGVRTYYADSVKGRFTISRDNAKNTVYLQMNSLKPEATAVYFCAVPPSIRGAQAQPWMDYWGQGTQVTVSS`
low polyreactivity

Note polyreactivity (PSR sort gate) for the sequence shown: `QVQLVESGGGLVQAGGSLRLSCAASGLIFHQYAMGWYRQAPGKERELVAAITRSGTRTYYADSVKGRFTISRDNAKNTVYLQMNSLKPEDTAVYYCAAADTQGVSMDYWGQGTQVTVSS`
high polyreactivity

Note polyreactivity (PSR sort gate) for the sequence shown: `QVHLVESWAGLVQAGGSLRLSGAASGTNVMGWYRQAPGKERELDAAISGSGGSTYYADSVKGRFTISRDNAKNTVYLQMNSLKPEDTAVYYCAADSIQYTARPYDYWGQGTQVTVSS`
low polyreactivity
